Target: EGR1 (endogenous, HL60 cells) (Homo sapiens, UniProt P18146 P18146:1-543)
Sequence (P18146 whole entry, one chain of several): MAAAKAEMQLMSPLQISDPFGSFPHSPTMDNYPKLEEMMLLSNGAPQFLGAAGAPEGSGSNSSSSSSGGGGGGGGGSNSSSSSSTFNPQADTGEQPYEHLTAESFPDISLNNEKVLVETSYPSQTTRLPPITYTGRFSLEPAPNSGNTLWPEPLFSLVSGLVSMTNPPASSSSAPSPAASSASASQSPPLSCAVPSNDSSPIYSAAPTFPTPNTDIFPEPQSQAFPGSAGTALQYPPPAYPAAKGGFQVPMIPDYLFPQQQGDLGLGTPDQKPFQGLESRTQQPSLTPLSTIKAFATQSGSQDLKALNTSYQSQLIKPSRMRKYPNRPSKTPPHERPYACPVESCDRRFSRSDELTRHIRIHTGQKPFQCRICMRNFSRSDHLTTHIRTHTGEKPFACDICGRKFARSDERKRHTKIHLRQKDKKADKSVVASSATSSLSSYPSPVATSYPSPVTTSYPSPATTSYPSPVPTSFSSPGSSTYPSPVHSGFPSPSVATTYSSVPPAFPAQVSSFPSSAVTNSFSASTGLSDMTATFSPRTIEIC
Assay: cell_activity; inhibition of CDK5R1 mRNA in HL60 cells 48 h after vitamin D3; figure legend states 136 nM
Assay Readout: IC50
The reply should read as a number followed by its unit.

Exercise: # lookup: IC50 of SEQ ID NO 42 fused EGR1 sites decoy (dsDNA) DNA 1: GTATGCGTGGGCGGTGGGCGTAG DNA 2: CTACGCCCACCGCCCACGCATAC
Key: 150 nM
